The reported measurements were obtained from patent US20140275105A1.

assay: Solubility in JP1, JP2, JP2+TC, FaSSIF, FeSSIF (shaking 10 minutes at room temperature, HPLC); format: physicochemical; settings: FeSSIF (simulated intestinal fluid, pH 5); FeSSIF (fed state), pH approximately 5.0, room temperature, 10 minutes shaking; read-out: Solubility FeSSIF
Recorded solubility at 10 minutes values for a group of molecules are listed next.
Value kind: solubility at 10 minutes

Line notation	Value kind	Value
CS(=O)(=O)O.C[C@@H]1CN(c2ccc(C#N)c(Cl)c2)[C@@H](C)CN1C(=O)Nc1cnc(C2CC2)nc1	solubility at 10 minutes	> 100 µg/mL
C[C@@H]1CN(c2ccc(C#N)c(Cl)c2)[C@@H](C)CN1C(=O)Nc1cnc(C2CC2)nc1.O	solubility at 10 minutes	17.7 µg/mL
Br.C[C@@H]1CN(c2ccc(C#N)c(Cl)c2)[C@@H](C)CN1C(=O)Nc1cnc(C2CC2)nc1	solubility at 10 minutes	94.9 µg/mL
C[C@@H]1CN(c2ccc(C#N)c(Cl)c2)[C@@H](C)CN1C(=O)Nc1cnc(C2CC2)nc1.Cl	solubility at 10 minutes	> 100 µg/mL

* * *

Recorded solubility at 10 minutes values for a group of compounds are listed next.
experiment: Solubility in JP1, JP2, JP2+TC, FaSSIF, FeSSIF (shaking 10 minutes at room temperature, HPLC); format: physicochemical; conditions: pH 1.2; JP1, pH approximately 1.2, room temperature, 10 minutes shaking; read-out: Solubility JP1
Value kind: solubility at 10 minutes

Line notation	Value
Br.C[C@@H]1CN(c2ccc(C#N)c(Cl)c2)[C@@H](C)CN1C(=O)Nc1cnc(C2CC2)nc1	12.3 µg/mL
CS(=O)(=O)O.C[C@@H]1CN(c2ccc(C#N)c(Cl)c2)[C@@H](C)CN1C(=O)Nc1cnc(C2CC2)nc1	> 100 µg/mL
C[C@@H]1CN(c2ccc(C#N)c(Cl)c2)[C@@H](C)CN1C(=O)Nc1cnc(C2CC2)nc1.O	21.8 µg/mL
C[C@@H]1CN(c2ccc(C#N)c(Cl)c2)[C@@H](C)CN1C(=O)Nc1cnc(C2CC2)nc1.Cl	9.7 µg/mL

* * *

assay: Solubility in JP1, JP2, JP2+TC, FaSSIF, FeSSIF (shaking 10 minutes at room temperature, HPLC); format: physicochemical; details: JP2+TC (JP2 + bile acid); JP2 + 15 mmol/L sodium taurocholic acid, room temperature, 10 minutes shaking; read-out: Solubility JP2 + TC
Value kind: solubility at 10 minutes (µg/mL)

Line notation	Value kind	Bound operator	Value
CS(=O)(=O)O.C[C@@H]1CN(c2ccc(C#N)c(Cl)c2)[C@@H](C)CN1C(=O)Nc1cnc(C2CC2)nc1	solubility at 10 minutes	>	100
C[C@@H]1CN(c2ccc(C#N)c(Cl)c2)[C@@H](C)CN1C(=O)Nc1cnc(C2CC2)nc1.O	solubility at 10 minutes	=	8.8
C[C@@H]1CN(c2ccc(C#N)c(Cl)c2)[C@@H](C)CN1C(=O)Nc1cnc(C2CC2)nc1.Cl	solubility at 10 minutes	=	92.8
Br.C[C@@H]1CN(c2ccc(C#N)c(Cl)c2)[C@@H](C)CN1C(=O)Nc1cnc(C2CC2)nc1	solubility at 10 minutes	>	80.6

* * *

assay: Solubility in JP1, JP2, JP2+TC, FaSSIF, FeSSIF (shaking 10 minutes at room temperature, HPLC); assay type: physicochemical; conditions: pH 6.8; JP2, pH approximately 6.8, room temperature, 10 minutes shaking; read-out: Solubility JP2

Line notation	solubility at 10 minutes, µg/mL
Br.C[C@@H]1CN(c2ccc(C#N)c(Cl)c2)[C@@H](C)CN1C(=O)Nc1cnc(C2CC2)nc1	19.8
CS(=O)(=O)O.C[C@@H]1CN(c2ccc(C#N)c(Cl)c2)[C@@H](C)CN1C(=O)Nc1cnc(C2CC2)nc1	20.6
C[C@@H]1CN(c2ccc(C#N)c(Cl)c2)[C@@H](C)CN1C(=O)Nc1cnc(C2CC2)nc1.Cl	10.1
C[C@@H]1CN(c2ccc(C#N)c(Cl)c2)[C@@H](C)CN1C(=O)Nc1cnc(C2CC2)nc1.O	1.6

* * *

assay: Hygroscopicity test (VTI SGA-100); assay type: physicochemical; conditions: 25° C., 5% to 95% relative humidity
Recorded Hygroscopicity values for a group of compounds are listed next.

Line notation	Hygroscopicity
Br.C[C@@H]1CN(c2ccc(C#N)c(Cl)c2)[C@@H](C)CN1C(=O)Nc1cnc(C2CC2)nc1	0.1% or less
CS(=O)(=O)O.C[C@@H]1CN(c2ccc(C#N)c(Cl)c2)[C@@H](C)CN1C(=O)Nc1cnc(C2CC2)nc1	~5%
C[C@@H]1CN(c2ccc(C#N)c(Cl)c2)[C@@H](C)CN1C(=O)Nc1cnc(C2CC2)nc1.O	0.1% or less
C[C@@H]1CN(c2ccc(C#N)c(Cl)c2)[C@@H](C)CN1C(=O)Nc1cnc(C2CC2)nc1.Cl	~1.4%

* * *

assay: Solubility in JP1, JP2, JP2+TC, FaSSIF, FeSSIF (shaking 10 minutes at room temperature, HPLC); type: physicochemical; details: FaSSIF (simulated intestinal fluid, pH 6.5); FaSSIF (fasted state), pH approximately 6.5, room temperature, 10 minutes shaking; read-out: Solubility FaSSIF
Value kind: solubility at 10 minutes (µg/mL)

Line notation	Unit abbrev	Value
C[C@@H]1CN(c2ccc(C#N)c(Cl)c2)[C@@H](C)CN1C(=O)Nc1cnc(C2CC2)nc1.Cl	µg/mL	39.4
C[C@@H]1CN(c2ccc(C#N)c(Cl)c2)[C@@H](C)CN1C(=O)Nc1cnc(C2CC2)nc1.O	µg/mL	4.4
CS(=O)(=O)O.C[C@@H]1CN(c2ccc(C#N)c(Cl)c2)[C@@H](C)CN1C(=O)Nc1cnc(C2CC2)nc1	µg/mL	47.2
Br.C[C@@H]1CN(c2ccc(C#N)c(Cl)c2)[C@@H](C)CN1C(=O)Nc1cnc(C2CC2)nc1	µg/mL	41
